Biological target: UniProt:Q6GI75
Sequence (Q6GI75 1-256): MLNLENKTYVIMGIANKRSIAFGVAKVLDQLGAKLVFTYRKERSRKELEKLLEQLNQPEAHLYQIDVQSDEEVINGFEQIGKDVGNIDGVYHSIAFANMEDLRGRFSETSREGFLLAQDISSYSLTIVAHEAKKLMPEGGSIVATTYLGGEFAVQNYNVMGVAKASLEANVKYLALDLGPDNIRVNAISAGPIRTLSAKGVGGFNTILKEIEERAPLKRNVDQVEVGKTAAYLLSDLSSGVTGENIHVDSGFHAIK
Test: Staphylococcus aureus FabI enzyme inhibition assay
Format: biochemical
Details: NADH consumption, 30 minutes, read-out: FabI (300.235) IC50 (converted)
result type: IC50 (nM)
Just the number in nM, nothing appended.

Here is how some compounds turned out for IC50.
O=C1CNCc2cc(/C=C/C(=O)N3CCC=C(c4ccccc4)CC3)cnc2N1 [compound 36]	747
Cn1nccc1C(=O)Nc1ccc(/C=C/C(=O)N2CCC=C(c3ccccc3)CC2)cn1	1920
O=C(Nc1ccc(/C=C/C(=O)N2CCC=C(c3ccccc3)CC2)cn1)C1CCOC1 (centres unmarked)	934
COc1ccc(F)cc1C1=CCCN(C(=O)/C=C/c2cnc3c(c2)CN2CCN(C(C)=O)CC2C(=O)N3)CC1 (centres unmarked)	1110
CN1CC(=O)Nc2ncc(/C=C/C(=O)N3CCC=C(c4ccccc4)CC3)cc2C1 [compound 38]	820
CC(=O)Nc1ccc(/C=C/C(=O)N2CC=C(c3ccccc3)CCC2)cn1	609

Documented IC50 of O=C(Nc1ccc(/C=C/C(=O)N2CCC=C(c3ccccc3)CC2)cn1)C1CCCC1 : 2050

The value of IC50 measured for the compound O=C(Nc1ccc(/C=C/C(=O)N2CCC=C(c3ccccc3)CC2)cn1)c1ccncc1 turned out to be 1250

Data point: O=C(Nc1ccc(/C=C/C(=O)N2CCC=C(c3ccccc3)CC2)cn1)c1ccccn1 ; IC50 = 2100

Entry CN1CC(=O)Nc2ncc(/C=C/C(=O)N3CCC=C(c4cccs4)CC3)cc2C1 , IC50 reported as 1250

Please fill in: IC50 reported for O=C1Nc2ncc(/C=C/C(=O)N3CC=C(c4ccccc4)CCC3)cc2CN2CCSCC12 (centres unmarked) = 1110

Lookup result for CC(C)Nc1ccc(/C=C/C(=O)N2CCC=C(c3ccccc3)CC2)cn1 ; measured IC50: 5260

Lab note: O=CNc1ccc(/C=C/C(=O)N2CCC=C(c3ccccc3)CC2)cn1 gave IC50 of 662

The compound identified as COc1ccc(F)cc1C1=CCCN(C(=O)/C=C/c2cnc3c(c2)COCC(=O)N3)CC1 registered its IC50 at 1260
